B1: Pistol ribozyme (parent)
chain: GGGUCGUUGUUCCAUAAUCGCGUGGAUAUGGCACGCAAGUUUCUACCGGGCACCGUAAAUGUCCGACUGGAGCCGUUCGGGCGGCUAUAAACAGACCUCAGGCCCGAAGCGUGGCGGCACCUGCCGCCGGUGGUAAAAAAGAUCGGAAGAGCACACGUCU

variants of: B1; test: aptazyme ON/OFF ratio, guanine; higher = stronger switching; co-transcriptional cleavage with and without guanine
Outcome Measure: aptazyme ON/OFF ratio

| Mutation | Outcome Measure | Observed Value |
| --- | --- | --- |
| U8C G9U U10G U11C C12U C13U | aptazyme ON/OFF ratio | 1.19 |
| U8G G9A U10A U11G C12U C13A | aptazyme ON/OFF ratio | 1.31 |
| U7G U8A G9C U10A U11G C12A C13A | aptazyme ON/OFF ratio | 1.05 |
| U7G U8G U11A C12U C13U | aptazyme ON/OFF ratio | 1.15 |
| U7A G9C U11C | aptazyme ON/OFF ratio | 1.07 |
| U7C G9U U10A U11G | aptazyme ON/OFF ratio | 1.31 |
| U7G U8G G9U U10A C12A C13U | aptazyme ON/OFF ratio | 1.15 |
| U7G U8C G9U U10C U11G C12G C13U | aptazyme ON/OFF ratio | 1.08 |
| U7A G9C U10C U11G C12U | aptazyme ON/OFF ratio | 1.06 |
| U7A U8G U11A C12A C13A | aptazyme ON/OFF ratio | 1.41 |
| U7A U10G U11G C12U C13A | aptazyme ON/OFF ratio | 1.33 |
